- test system: recombinant TLR4 protein (Homo sapiens, UniProt O00206)
- Construct: purchased Abcam ab233665
- Sequence (O00206 24-839): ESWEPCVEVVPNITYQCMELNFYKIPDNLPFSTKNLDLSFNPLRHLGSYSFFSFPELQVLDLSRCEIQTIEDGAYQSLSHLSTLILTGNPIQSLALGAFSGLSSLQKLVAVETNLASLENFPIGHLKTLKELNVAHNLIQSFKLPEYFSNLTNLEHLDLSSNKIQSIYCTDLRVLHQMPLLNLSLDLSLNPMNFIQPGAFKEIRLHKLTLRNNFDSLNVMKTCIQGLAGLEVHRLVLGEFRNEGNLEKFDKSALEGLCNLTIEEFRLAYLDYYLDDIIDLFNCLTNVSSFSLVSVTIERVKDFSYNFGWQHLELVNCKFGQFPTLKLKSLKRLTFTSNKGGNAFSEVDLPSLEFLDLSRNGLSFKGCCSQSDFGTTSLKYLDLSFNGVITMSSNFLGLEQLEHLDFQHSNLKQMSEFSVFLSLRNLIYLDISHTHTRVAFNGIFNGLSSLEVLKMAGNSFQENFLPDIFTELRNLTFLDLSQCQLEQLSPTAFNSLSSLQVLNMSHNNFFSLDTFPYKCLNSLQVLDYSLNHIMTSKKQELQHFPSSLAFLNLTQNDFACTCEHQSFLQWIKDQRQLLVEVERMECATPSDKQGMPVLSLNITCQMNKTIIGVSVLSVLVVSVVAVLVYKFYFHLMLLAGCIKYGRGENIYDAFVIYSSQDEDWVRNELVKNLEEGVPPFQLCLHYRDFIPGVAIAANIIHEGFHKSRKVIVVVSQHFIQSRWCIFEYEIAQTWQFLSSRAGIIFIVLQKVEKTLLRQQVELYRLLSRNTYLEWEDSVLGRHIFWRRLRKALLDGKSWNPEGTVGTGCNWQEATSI
- procedure summary: Microscale thermophoresis (MST) binding assay
- setup conditions: 1:1 binding mode, read-out: mean KD, CA–TLR4
value type: pKd
# log scale: pKd equals minus log10 of the concentration in mol/L

-- ask Look up pKd: `O=C(O)/C=C/c1ccccc1`
-- reply 3.68

---

Give measured MRT inf for each item. Keep answers brief.
- procedure summary: In vivo pharmacokinetic analysis of MG and CA after oral BHGZD (UHPLC-QTRAP-MS/MS)
- setup conditions: male, Lewis; rat plasma after oral BHGZD 21.4 g/kg each day; n = 3; read-out: MRT(0-∞)
Only the number, expressed in h, is required.

-- ask Look up MRT inf: O=C(O)/C=C/c1ccccc1 [CA, cinnamic acid]
-- reply 2.26

-- ask Look up MRT inf: O=c1c2cc(O)c(O)cc2oc2cc(O)c([C@@H]3O[C@H](CO)[C@@H](O)[C@H](O)[C@H]3O)c(O)c12 [MG, mangiferin]
-- reply 4.25

---

- procedure summary: In vivo pharmacokinetic analysis of MG and CA after oral BHGZD (UHPLC-QTRAP-MS/MS)
- setup conditions: male, Lewis; rat plasma after oral BHGZD 21.4 g/kg each day; n = 3; read-out: MRT(0-t)
value type: MRT last (h)
Only the number, expressed in h, is required.

-- ask Look up MRT last: `O=C(O)/C=C/c1ccccc1`
-- reply 1.93

-- ask Look up MRT last: `O=c1c2cc(O)c(O)cc2oc2cc(O)c([C@@H]3O[C@H](CO)[C@@H](O)[C@H](O)[C@H]3O)c(O)c12`
-- reply 4.23

---

- procedure summary: In vivo pharmacokinetic analysis of MG and CA after oral BHGZD (UHPLC-QTRAP-MS/MS)
- setup conditions: male, Lewis; rat plasma after oral BHGZD 21.4 g/kg each day; non-compartment model; n = 3
value type: Tmax (h)
Only the number, expressed in h, is required.

-- ask Look up Tmax: `O=c1c2cc(O)c(O)cc2oc2cc(O)c([C@@H]3O[C@H](CO)[C@@H](O)[C@H](O)[C@H]3O)c(O)c12`
-- reply 4

---

Give measured Cmax for each item. Keep answers brief.
- procedure summary: In vivo pharmacokinetic analysis of MG and CA after oral BHGZD (UHPLC-QTRAP-MS/MS)
- setup conditions: male, Lewis, rat, plasma, po, 21.4 g/kg, rat plasma after oral BHGZD 21.4 g/kg each day; non-compartment model; n = 3; read-out: Cmax
Only the number, expressed in ng/mL, is required.

-- ask Look up Cmax: `O=c1c2cc(O)c(O)cc2oc2cc(O)c([C@@H]3O[C@H](CO)[C@@H](O)[C@H](O)[C@H]3O)c(O)c12`
-- reply 132

-- ask Look up Cmax: `O=C(O)/C=C/c1ccccc1`
-- reply 120

---

Give measured AUC(0-inf) for each item. Keep answers brief.
- procedure summary: In vivo pharmacokinetic analysis of MG and CA after oral BHGZD (UHPLC-QTRAP-MS/MS)
- setup conditions: male, Lewis; rat plasma after oral BHGZD 21.4 g/kg each day; n = 3

-- ask Look up AUC(0-inf): `O=C(O)/C=C/c1ccccc1`
-- reply 144 ng·h/mL

-- ask Look up AUC(0-inf): `O=c1c2cc(O)c(O)cc2oc2cc(O)c([C@@H]3O[C@H](CO)[C@@H](O)[C@H](O)[C@H]3O)c(O)c12`
-- reply 579 ng·h/mL

---

- procedure summary: In vivo pharmacokinetic analysis of MG and CA after oral BHGZD (UHPLC-QTRAP-MS/MS)
- setup conditions: male, Lewis; 0-24 h; rat plasma after oral BHGZD 21.4 g/kg each day; n = 3
value type: AUC(0-t) (ng·h/mL)
Only the number, expressed in ng·h/mL, is required.

-- ask Look up AUC(0-t): `O=c1c2cc(O)c(O)cc2oc2cc(O)c([C@@H]3O[C@H](CO)[C@@H](O)[C@H](O)[C@H]3O)c(O)c12`
-- reply 578

-- ask Look up AUC(0-t): `O=C(O)/C=C/c1ccccc1`
-- reply 102

Where these numbers come from: paper PMC9253268
